# target desc: ERBB3 (human) (UniProt P21860)
# Sequence (P21860 whole entry, looked up): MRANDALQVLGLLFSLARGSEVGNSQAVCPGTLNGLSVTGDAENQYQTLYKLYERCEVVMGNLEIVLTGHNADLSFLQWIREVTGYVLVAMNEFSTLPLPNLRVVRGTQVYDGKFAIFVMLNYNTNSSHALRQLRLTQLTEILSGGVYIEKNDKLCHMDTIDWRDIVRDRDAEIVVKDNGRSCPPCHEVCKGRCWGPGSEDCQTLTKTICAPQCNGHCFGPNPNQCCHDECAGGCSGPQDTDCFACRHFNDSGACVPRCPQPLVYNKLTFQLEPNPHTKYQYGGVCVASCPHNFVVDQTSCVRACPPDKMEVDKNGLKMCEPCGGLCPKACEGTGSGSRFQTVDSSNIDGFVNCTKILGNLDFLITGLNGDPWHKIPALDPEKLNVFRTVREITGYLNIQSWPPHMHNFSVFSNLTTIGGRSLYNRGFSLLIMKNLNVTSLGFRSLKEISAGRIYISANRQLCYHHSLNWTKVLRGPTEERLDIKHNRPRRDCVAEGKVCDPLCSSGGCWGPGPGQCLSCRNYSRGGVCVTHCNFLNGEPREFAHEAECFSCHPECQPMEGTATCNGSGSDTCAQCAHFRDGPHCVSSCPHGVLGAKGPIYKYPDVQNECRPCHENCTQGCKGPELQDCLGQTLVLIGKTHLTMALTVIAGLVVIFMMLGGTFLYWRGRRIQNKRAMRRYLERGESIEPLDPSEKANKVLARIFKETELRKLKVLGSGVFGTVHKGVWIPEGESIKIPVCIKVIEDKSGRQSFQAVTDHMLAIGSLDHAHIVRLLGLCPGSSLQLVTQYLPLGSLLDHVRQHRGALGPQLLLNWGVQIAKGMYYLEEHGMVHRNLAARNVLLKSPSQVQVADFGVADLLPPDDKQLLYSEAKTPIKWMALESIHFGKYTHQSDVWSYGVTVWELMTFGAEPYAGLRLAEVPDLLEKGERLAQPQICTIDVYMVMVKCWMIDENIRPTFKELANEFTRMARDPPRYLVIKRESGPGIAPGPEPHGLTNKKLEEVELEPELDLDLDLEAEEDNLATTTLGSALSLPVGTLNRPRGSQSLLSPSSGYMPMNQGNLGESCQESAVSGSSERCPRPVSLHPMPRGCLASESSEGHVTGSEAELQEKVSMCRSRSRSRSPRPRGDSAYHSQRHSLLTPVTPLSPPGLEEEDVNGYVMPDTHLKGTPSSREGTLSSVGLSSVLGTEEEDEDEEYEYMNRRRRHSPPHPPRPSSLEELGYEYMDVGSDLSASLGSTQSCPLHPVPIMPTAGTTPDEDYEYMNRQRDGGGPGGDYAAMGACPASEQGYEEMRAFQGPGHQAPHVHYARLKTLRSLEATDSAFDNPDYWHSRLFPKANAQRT
# measurement protocol: KINOMEscan competition binding
# conditions used: compound 10.0 µM
Quick reference: kinase still bound, per cent of control of the listed items.
Form entry: value (%) — number only.

Which kinase still bound, per cent of control reading was recorded for the compound Cc1ccc(NC(=O)c2cccc(C(C)(C)C#N)c2)cc1Nc1ccc2ncn(C)c(=O)c2c1 ?
100

Please look up its kinase still bound, per cent of control: Cn1c(=O)n(-c2ccc(C(C)(C)C#N)cc2)c2c3cc(-c4cnc5ccccc5c4)ccc3ncc21
100

# query: kinase still bound, per cent of control of entry C=CC(=O)Nc1cc(NC(=O)c2ccc(C)c(NC(=O)c3ccno3)c2)cc(C(F)(F)F)c1
100

Consider the compound shown here: OCCCNc1cc(-c2ccnc(Nc3cccc(Cl)c3)n2)ccn1 What is its recorded kinase still bound, per cent of control?
100

# get_value(readout='kinase still bound, per cent of control', item= C[C@@H](Oc1cc(-n2cnc3ccc(CN4CCN(C)CC4)cc32)sc1C(N)=O)c1ccccc1C(F)(F)F )
100

Continuing:
// returns reported kinase still bound, per cent of control for input CN(C)C/C=C/C(=O)Nc1cccc(Nc2ncc3c(n2)N(C)c2ccccc2C(=O)N3C)c1
89

I would be grateful if you could share the reported kinase still bound, per cent of control for C=CC(=O)Nc1cccc(Nc2nc(N[C@H]3CC[C@H](N(C)C)CC3)nc3c2ncn3C(C)C)c1 .
94

Please look up its kinase still bound, per cent of control: O=C(NOC[C@H](O)CO)c1ccc(F)c(F)c1Nc1ccc(I)cc1F
100

Form field: reported kinase still bound, per cent of control of CCCS(=O)(=O)Nc1ccc(F)c(C(=O)c2c[nH]c3ncc(-c4ccc(Cl)cc4)cc23)c1F
73

---

# target desc: CDK13 (human) (UniProt Q14004)
# Sequence (Q14004 whole entry, looked up): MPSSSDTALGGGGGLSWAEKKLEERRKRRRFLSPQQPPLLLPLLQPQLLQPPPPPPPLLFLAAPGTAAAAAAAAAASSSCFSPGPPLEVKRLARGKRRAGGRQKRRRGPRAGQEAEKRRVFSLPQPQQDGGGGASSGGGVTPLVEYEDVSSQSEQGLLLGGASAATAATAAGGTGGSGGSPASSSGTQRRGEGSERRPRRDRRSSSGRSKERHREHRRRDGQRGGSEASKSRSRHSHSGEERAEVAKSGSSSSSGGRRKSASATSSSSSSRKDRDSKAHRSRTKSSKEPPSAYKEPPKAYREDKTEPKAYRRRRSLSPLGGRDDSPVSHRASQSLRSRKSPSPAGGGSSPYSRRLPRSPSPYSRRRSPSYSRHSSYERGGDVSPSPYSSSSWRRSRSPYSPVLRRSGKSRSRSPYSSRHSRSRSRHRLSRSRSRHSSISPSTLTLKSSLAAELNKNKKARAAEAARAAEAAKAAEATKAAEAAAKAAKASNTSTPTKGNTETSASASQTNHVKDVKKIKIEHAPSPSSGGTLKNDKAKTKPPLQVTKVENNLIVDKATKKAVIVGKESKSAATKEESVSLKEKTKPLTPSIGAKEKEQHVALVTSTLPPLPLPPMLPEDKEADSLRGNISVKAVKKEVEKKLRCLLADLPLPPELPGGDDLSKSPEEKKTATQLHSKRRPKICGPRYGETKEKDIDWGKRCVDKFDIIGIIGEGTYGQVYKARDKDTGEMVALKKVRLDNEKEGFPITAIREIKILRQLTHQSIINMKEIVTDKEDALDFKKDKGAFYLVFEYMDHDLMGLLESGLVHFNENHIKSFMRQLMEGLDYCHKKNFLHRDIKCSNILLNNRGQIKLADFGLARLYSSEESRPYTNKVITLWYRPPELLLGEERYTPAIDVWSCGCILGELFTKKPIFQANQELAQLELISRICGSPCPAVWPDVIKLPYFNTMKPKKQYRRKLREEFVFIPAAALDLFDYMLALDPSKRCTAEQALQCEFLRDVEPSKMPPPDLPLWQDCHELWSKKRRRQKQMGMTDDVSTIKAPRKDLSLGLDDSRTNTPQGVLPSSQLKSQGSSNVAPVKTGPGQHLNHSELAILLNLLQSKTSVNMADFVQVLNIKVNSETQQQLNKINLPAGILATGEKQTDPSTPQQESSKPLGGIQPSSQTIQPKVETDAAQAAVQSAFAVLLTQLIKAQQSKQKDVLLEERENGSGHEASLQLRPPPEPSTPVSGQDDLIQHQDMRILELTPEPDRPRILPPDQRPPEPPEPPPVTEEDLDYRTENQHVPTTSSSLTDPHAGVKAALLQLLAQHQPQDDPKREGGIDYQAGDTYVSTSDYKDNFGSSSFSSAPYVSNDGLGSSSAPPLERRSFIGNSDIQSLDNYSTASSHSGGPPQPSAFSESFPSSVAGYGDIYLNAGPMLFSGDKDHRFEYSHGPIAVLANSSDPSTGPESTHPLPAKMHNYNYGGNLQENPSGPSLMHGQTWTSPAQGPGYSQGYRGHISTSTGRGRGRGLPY
# measurement protocol: KINOMEscan competition binding
# conditions used: compound 10.0 µM
Here, each record is paired with measured kinase still bound, per cent of control data.
# number only, unit % dropped from output

Below, each entry is followed by its recorded kinase still bound, per cent of control result.
Looking for the measured kinase still bound, per cent of control of CCN1CCN(Cc2ccc(Nc3ncc4c(n3)N(C)c3ccccc3C(=O)N4C)cc2C(F)(F)F)CC1 , can you help?
100

I'd like to know its kinase still bound, per cent of control. The compound in question is COc1cc(N2CCN(C)CC2)ccc1Nc1nc(N)c(C(=O)c2c(Cl)cccc2Cl)s1
83

***
What kinase still bound, per cent of control value was documented for this compound, N#Cc1c(NC(=O)c2cccc3ccccc23)sc2c1CCCC2 ?
87

Returns the measured kinase still bound, per cent of control for the input compound. Input: CCCS(=O)(=O)Nc1ccc(F)c(C(=O)c2c[nH]c3ncc(-c4ccc(Cl)cc4)cc23)c1F
100

Which value of kinase still bound, per cent of control has been reported for CCC(=O)N1CCN(c2ccc(-n3c(=O)ccc4cnc5ccc(-c6cnc7ccccc7c6)cc5c43)cc2C(F)(F)F)CC1 in the records?
80

---

# Tested on: EGFR (human), P00533 [L861Q]
# measurement protocol: KINOMEscan competition binding
# conditions used: compound 10.0 µM
measured property: kinase still bound, per cent of control (%)
Field: numeric (%). Do not append units.

# example entries with known answers
// query kinase still bound, per cent of control value for entry COc1cc(C(=O)NC2CCN(C)CC2)ccc1Nc1ncc2c(n1)N(C1CCCC1)CCC(=O)N2C(C)C
100

I am curious: what kinase still bound, per cent of control value has been reported for CCN1CCN(Cc2ccc(Nc3ncc4c(n3)N(C)c3ccccc3C(=O)N4C)cc2C(F)(F)F)CC1 ?
98

Return reported kinase still bound, per cent of control; argument: N#Cc1cc(-c2ccnc(Nc3ccc(-n4cnc(-c5cccnc5)n4)cc3)n2)cc(N2CCOCC2)c1
92

So what's the measured kinase still bound, per cent of control for this one? CCOc1cc(N2CCC(O)CC2)ccc1Nc1ncc2c(n1)N(C)c1ccccc1C(=O)N2C
100

Given the entry COc1cc(C(=O)NC2CCN(C)CC2)ccc1Nc1ncc2c(n1)N(C1CCCC1)C(C)CC(=O)N2C (stereo not drawn) , report its measured kinase still bound, per cent of control.
100

Next:
So what's the measured kinase still bound, per cent of control for this one? O=C(Nc1cccc(Nc2ncc(Br)c(NCCc3cnc[nH]3)n2)c1)N1CCCC1
75

Need kinase still bound, per cent of control, item COc1cc(C)c(Sc2cnc(NC(=O)c3ccc(CNC(C)C(C)C)cc3)s2)cc1C(=O)N1CCN(C(C)=O)CC1 (stereo not drawn)
100

Report kinase still bound, per cent of control for CCN(CC)CCCCNc1ncc2c(n1)N(C)C(=O)N(c1c(Cl)c(OC)cc(OC)c1Cl)C2 please.
100

What measured kinase still bound, per cent of control goes with N#CCNC(=O)c1ccc(-c2ccnc(Nc3ccc(N4CCOCC4)cc3)n2)cc1 ?
66

Consider the compound COc1ccc(N(C(=O)Oc2c(C)cccc2C)c2ccnc(Nc3ccc(N4CCN(C)CC4)cc3)n2)c(OC)c1 and give its measured kinase still bound, per cent of control.
0.1

Endpoint output: kinase still bound, per cent of control of COc1ccc(N(C(=O)Oc2cc(C(=O)Nc3cccc(C(F)(F)F)c3)ccc2C)c2ccnc(Nc3ccc(N4CCN(C)CC4)cc3)n2)c(OC)c1 . Value?
1

Param item = O=C(NC1CC1)c1cccc(-c2ccc3c(NC(=O)C4CC4)n[nH]c3c2)c1 ; retrieve measured kinase still bound, per cent of control.
69

Would you mind telling me what kinase still bound, per cent of control value was observed for CCCS(=O)(=O)Nc1ccc(F)c(C(=O)c2c[nH]c3ncc(Cl)cc23)c1F ?
34

State the recorded kinase still bound, per cent of control for this entry: CC1=C(C(=O)Nc2cc3cn[nH]c3cc2F)C(c2ccc(C(F)(F)F)cc2)CC(=O)N1 (stereo not drawn)
91
